# credit: patent US20250263468A1

molecular target: SARS-CoV-2 virus surface protein (RBD), wild type (SARS-CoV-2, UniProt P0DTC2 319-536); assay: BLI (Octet), full IgG against SARS-CoV-2 RBD
value kind: pKd
Interpret pKd as the negative base-10 log of the concentration measured in mol/L.

Query: Fill in the blank: the reported pKd of antibody No. 34 (fully human antibody, full IgG) (antibody, V domains shown) VH: QVQLVQSGAEVKKPGSSVKVSCKTSGGTFSNYPLTWVRQAPGQGLEWLGGIIPIIGATNYAQKFQGRVTITADESTSTAFMELSSLRSEDTAVYYCARGRGYSGYGAAYYFDYWGQGTLVTVSS VL: ELELTQPPSVSGAPGQRVTISCTGSSSNIGAGYDVHWYQQLPGTAPKLLIYGNSNRPSGVPDRFSGSKSGTSASLAITGLQAEDEADYYCQSYDSSLSGWVFGGGTKVTVL is ____.
Response: 9.73
